Values compiled from patent US20230348578A1.

molecular target: cis P-tau in cultured neurons stressed by hypoxia; assay: cell-based or functional assay
assay-endpoint: Cis P-tau elimination

[
  {
    "binder": "Cis-mAb HT8 (humanized) (antibody, V domains shown) VH: QVQLVQSGAEVKKPGASVKVSCKASGYTFTSYWIHWVRQRPGQGLEWIGVIDPSDSYTRYNQKFKGRVTITRDTSASTAYMELSSLRSEDTAVYYCTTWEVDYWGQGTLVTVSS VL: DVVMTQSPLSLPVTLGQPASISCRSSQSLVHSDGNTYLHWYLQKPGQSPQLLIYKVSNRDSGVPDRFSGSGSGTDFTLKISRVEAEDVGVYFCSQSTHVPWTFGGGTKVEIK",
    "endpoint-value": "0.9 relative (HT13 = 1.0)"
  },
  {
    "binder": "Cis-mAb HT2 (humanized) (antibody, V domains shown) VH: QVQLVQSGAEVKKPGASVKMSCKASGYTFTSYWIHWVKQRPGQGLEWIGVIDPSDSYTRYNQKFKGRATLTVDTSASTAYMELSSLRSEDTAVYYCTTWEVDYWGQGTLVTVSS VL: DVVMTQSPLSLPVTLGQPASISCRSSQSLVHSDGNTYLHWYLQKPGQSPQLLIYKVSNRFSGVPDRFSGSGSGTDFTLKISRVEAEDVGVYFCSQSTHVPWTFGGGTKVEIK",
    "endpoint-value": "1.5 relative (HT13 = 1.0)"
  },
  {
    "binder": "Cis-mAb HT1 (humanized) (antibody, V domains shown) VH: QVQLVQSGAELKKPGASVKMSCKASGYTFTSYWIHWVKQRPGQGLEWIGVIDPSDSYTRYNQKFKGRATLTVDTSASTAYMQLSSLTSEDSAVYYCTTWEVDYWGQGTTVTVSS VL: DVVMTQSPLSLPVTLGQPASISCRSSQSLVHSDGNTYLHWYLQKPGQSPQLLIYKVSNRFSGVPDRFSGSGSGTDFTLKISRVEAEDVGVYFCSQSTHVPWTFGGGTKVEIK",
    "endpoint-value": "1.7 relative (HT13 = 1.0)"
  },
  {
    "binder": "Cis-mAb HT13 (mouse-human chimera, control) (antibody, V domains shown) VH: QVQLQQPGAELVKPGASVKMSCKASGYTFTSYWIHWVKQRPGQGLEWIGVIDPSDSYTRYNQKFKGKATLTVDTSSSTAYMQLSSLTSEDSAVYYCTTWEVDYWGQGTTLTVSS VL: DVVMTQTPLSLPVSLGDQASISCRSSQSLVHSDGNTYLHWYLQKPGQSPKLLIYKVSNRFSGVPDRFSGSGSGTDFTLKISRLEAEDLGVYFCSQSTHVPWTFGGGTKLEIK",
    "endpoint-value": "1 relative (HT13 = 1.0)"
  },
  {
    "binder": "Cis-mAb HT10 (humanized) (antibody, V domains shown) VH: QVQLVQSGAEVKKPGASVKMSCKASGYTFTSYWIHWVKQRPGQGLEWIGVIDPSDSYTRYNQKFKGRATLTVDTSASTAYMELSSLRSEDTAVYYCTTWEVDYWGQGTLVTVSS VL: DVVMTQSPLSLPVTLGQPASISCRSSQSLVHSDGNTYLHWYLQKPGQSPQLLIYKVSNRFSGVPDRFSGSGSGTDFTLKISRVEAEDVGVYYCSQSTHVPWTFGGGTKVEIK",
    "endpoint-value": "0.9 relative (HT13 = 1.0)"
  },
  {
    "binder": "Cis-mAb HT3 (humanized) (antibody, V domains shown) VH: QVQLVQSGAEVKKPGASVKVSCKASGYTFTSYWIHWVRQRPGQGLEWIGVIDPSDSYTRYNQKFKGRVTLTVDTSASTAYMELSSLRSEDTAVYYCTTWEVDYWGQGTLVTVSS VL: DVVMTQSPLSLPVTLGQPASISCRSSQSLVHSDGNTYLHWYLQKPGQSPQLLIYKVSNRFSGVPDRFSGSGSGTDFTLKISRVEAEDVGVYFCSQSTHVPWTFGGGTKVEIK",
    "endpoint-value": "1.6 relative (HT13 = 1.0)"
  },
  {
    "binder": "Cis-mAb HT18 (humanized) (antibody, V domains shown) VH: QVQLVQSGAEVKKPGSSVKVSCKASGYTFTSYWIHWVRQAPGQGLEWMGVIDPSDSYTRYNQKFKGRVTITRDTSMSTAYTELSSLRSEDTAVYYCTTWEVDYWGQGTLVTVSS VL: DIQMTQSPSTLSASVGDRVTITCRSSQSLVHSDGNTYLHWYQQKPGKAPKLLIYKVSNRFSGVPSRFSGSGSGTEFTLTISSLQPDDFATYYCSQSTHVPWTFGQGTKLEIK",
    "endpoint-value": "0.8 relative (HT13 = 1.0)"
  }
]
